# Tested on: 217524-143-R1-J4-PDC spheroids with HUVEC/MSC, viability;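 also: spheroids exposed to agents for seven days before reading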
# Assay Name: Anticancer human tumor 217524-143-R1-J4-PDC patient-derived pancreatic carcinoma cell line growth inhibition [CLK]; active = viability on the fitted dose curve at most 10% of control; inactive = the rest
# Experimental Conditions: second compound 3.16 µM; first compound 0.1 µM
# Excerpt: A high-throughput screen of multi-cell type tumor spheroids was designed to identify active combinations of […] and targeted small molecules. Complex spheroids include a stromal component modeled by human endothelial cells (HUVEC) and fibroblasts modeled by human mesenchymal stem cells (MSCs). […] Compounds. […] If the clinical Cmax for an agent had not been determined, the highest concentration tested was 10 microM. […]
Outcome codes: active, inactive

C=C(F)C(=O)N1CCN(c2nc(OCC3CCCN3C)nc3c2CCN(c2cccc4cccc(Cl)c24)C3)CC1CC#N (stereo not given) + CN1CCN(c2cc(C(=O)Nc3cc4cc(-c5cnn(C)c5)ccc4cn3)ccn2)CC1 :: active
O=C(c1cc(Cc2n[nH]c(=O)c3ccccc23)ccc1F)N1CCN(C(=O)C2CC2)CC1 + CN1CCN(c2cc(C(=O)Nc3cc4cc(-c5cnn(C)c5)ccc4cn3)ccn2)CC1 :: active
CCc1c2c(nc3ccc(O)cc13)-c1cc3c(c(=O)n1C2)COC(=O)[C@]3(O)CC + CN1CCN(c2cc(C(=O)Nc3cc4cc(-c5cnn(C)c5)ccc4cn3)ccn2)CC1 :: active
Nc1ccn(C2OC(CO)C(O)C2(F)F)c(=O)n1 (stereo not given) + CNC(=O)c1ccc(Nc2nc(OC3CCCC3)c3c(-c4ccc5nc(C)oc5c4)c[nH]c3n2)c(OC)c1 :: inactive
O=C(c1cc(Cc2n[nH]c(=O)c3ccccc23)ccc1F)N1CCN(C(=O)C2CC2)CC1 + CNC(=O)c1ccc(Nc2nc(OC3CCCC3)c3c(-c4ccc5nc(C)oc5c4)c[nH]c3n2)c(OC)c1 :: inactive

The measurements presented in this section are drawn from PubChem BioAssay AID2060624.
